Every entry's value here was drawn from patent US8946218B2.

target: CCR2 (Homo sapiens, UniProt P41597); construct: Membranes were prepared from THP-1 cells; endogenous in cells; assay: Receptor membrane binding assay: [125I]MCP-1 binding to CCR2 on THP-1 cell membranes (SPA beads); conditions: THP-1 membranes, [125I]MCP-1, bound radioactivity after 8 h; read-out: hKi
Sequence (P41597 whole entry): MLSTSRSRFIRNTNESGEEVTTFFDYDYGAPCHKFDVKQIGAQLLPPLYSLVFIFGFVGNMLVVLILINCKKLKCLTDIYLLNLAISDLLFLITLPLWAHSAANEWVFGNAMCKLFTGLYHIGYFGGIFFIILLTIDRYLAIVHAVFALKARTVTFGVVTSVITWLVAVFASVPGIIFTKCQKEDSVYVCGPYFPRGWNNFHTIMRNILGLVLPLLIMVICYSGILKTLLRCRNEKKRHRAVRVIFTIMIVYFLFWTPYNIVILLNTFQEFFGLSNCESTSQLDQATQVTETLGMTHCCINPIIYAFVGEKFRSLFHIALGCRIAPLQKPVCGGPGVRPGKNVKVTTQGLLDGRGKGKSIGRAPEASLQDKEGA
attributeMeasured: Ki (µM)

{"columns": ["compound", "unitInfo", "Ki"],
 "data": [
  ["Cc1c(Nc2ccc(Cl)c(Cl)c2)ncnc1C(=O)N1CCC(N[C@H]2CCOC[C@H]2F)CC1 [Example 33e]", "µM", 0.023]
]}

1 = COC1COCCC1NC1CCN(C(=O)c2ncnc(Nc3ccccc3)c2C)CC1 (stereo not shown)
2 = CO[C@@H]1COCC[C@@H]1NC1CCN(C(=O)c2cc(Nc3cccc(C(F)(F)F)c3)ncn2)CC1
3 = Cc1c(Nc2ccc3ccccc3c2)ncnc1C(=O)N1CCC(N2CCC(N(C)S(C)(=O)=O)CC2)CC1
Please give the order of these compounds when sorted by Ki, largest value leading. Kindly provide the labels arranged according to the requested ordering.
1, 2, 3

* * *

biological target: CCR2 (Homo sapiens); construct: Membranes were prepared from THP-1 cells; endogenous in cells; assay: Receptor membrane binding assay: [125I]MCP-1 binding to CCR2 on THP-1 cell membranes (SPA beads); settings: THP-1 membranes, [125I]MCP-1, bound radioactivity after 8 h; read-out: hKi
attributeMeasured: Ki (nM)

Worked examples, 10 compounds total:
{"columns": ["compound", "Ki / nM"],
 "data": [
  ["CO[C@@H]1COCC[C@@H]1NC1CCN(C(=O)c2cc(Nc3cccc(C(F)(F)F)c3)nc(C(F)(F)F)n2)CC1", 64],
  ["COC1COCCC1NC1CCN(C(=O)c2ncnc(Nc3cc4ccccc4c(C)n3)c2C)CC1 (stereo not drawn)", 1010],
  ["Cc1c(Nc2ccc(Cl)c(Cl)c2)nc(C2CC2)nc1C(=O)N1CCC(N[C@H]2CCOC[C@H]2F)CC1 [Example 33q]", 0.8],
  ["COc1nc(Nc2cccc(C(F)(F)F)c2)c(C)c(C(=O)N2CCC(N[C@@H]3CCOC[C@@H]3OC)CC2)n1 [Example 33i]", 3],
  ["CO[C@H]1COCC[C@H]1NC1CCN(C(=O)c2nc(C3CC3)nc(Nc3cccc(C(F)(F)F)c3)c2C)CC1 [Example 33v]", 0.4],
  ["COC1COCCC1NC1CCN(C(=O)c2ncnc(Nc3cccc(C(F)(F)F)c3)c2C)CC1 (stereo not drawn)", 16],
  ["COc1ccc2ccc(Nc3ncnc(C(=O)N4CCC(N[C@@H]5CCOC[C@@H]5OC)CC4)c3C)cc2c1", 84],
  ["COC1COCCC1NC1CCN(C(=O)c2ncnc(Nc3cccc(F)c3)c2C)CC1 (stereo not drawn)", 146],
  ["CO[C@H]1COCC[C@H]1NC1CCN(C(=O)c2ncnc(Nc3ccc4cc(Br)ccc4c3)c2C)CC1", 20],
  ["COC1COCCC1NC1CCN(C(=O)c2ncnc(Nc3ccc(Cl)c(Cl)c3)c2C)CC1 (stereo not drawn)", 2]
]}

a = COc1nc(Nc2ccc(Cl)c(Cl)c2)c(C)c(C(=O)N2CCC(N[C@H]3CCOC[C@H]3OC)CC2)n1 [Example 33a]
b = CO[C@H]1COCC[C@H]1NC1CCN(C(=O)c2cc(Nc3cccc(C(F)(F)F)c3)ncn2)CC1
c = COC1COCCC1NC1CCN(C(=O)c2ncnc(Nc3ccc4ccccc4c3)c2C)CC1 (stereo not drawn)
d = COC1COCCC1NC1CCN(C(=O)c2ncnc(N(C)c3cccc(C(F)(F)F)c3)c2C)CC1 (stereo not drawn)
Give the ascending ranking of the items by reported Ki. Give the order by naming the labels one after another as requested.
a, c, b, d

P = CN(C1CCN(C2CCN(C(=O)c3cc(Nc4cccc(C(F)(F)F)c4)ncn3)CC2)CC1)S(C)(=O)=O
Q = CO[C@H]1COCC[C@H]1NC1CCN(C(=O)c2ncnc(Nc3ccc4ccccc4c3)c2C)CC1
R = CO[C@@H]1COCC[C@@H]1NC1CCN(C(=O)c2ncnc(Nc3ccc(Cl)c(Cl)c3)c2C)CC1 [Example 17a]
S = COc1nc(Nc2ccc(Cl)c(Cl)c2)c(C)c(C(=O)N2CCC(NC3CCOCC3)CC2)n1 [Example 33m]
T = CO[C@H]1COCC[C@H]1NC1CCN(C(=O)c2nccc(Nc3cccc(C(F)(F)F)c3)c2C)CC1
Descending sort on Ki required. A ranking is expressed here by listing the labels in the requested order.
P, Q, T, R, S

P = COc1ccc2cc(Nc3ncnc(C(=O)N4CCC(N[C@H]5CCOC[C@H]5OC)CC4)c3C)ccc2c1
Q = CO[C@@H]1COCC[C@@H]1NC1CCN(C(=O)c2ncnc(Nc3ccc(Cl)c(C(F)(F)F)c3)c2C)CC1
R = CO[C@@H]1COCC[C@@H]1NC1CCN(C(=O)c2nc(C3CC3)nc(Nc3ccc(Cl)c(Cl)c3)c2C)CC1 [Example 33o]
S = COc1nc(Nc2ccc(Cl)c(Cl)c2)c(C)c(C(=O)N2CCC(NC3CCOCC3F)CC2)n1 (stereo not drawn) [Example 33h]
T = CO[C@@H]1COCC[C@@H]1NC1CCN(C(=O)c2nccc(Nc3cccc(C(F)(F)F)c3)c2C)CC1
Ordering: ascending Ki. Answer format: list of labels, ordered as asked.
R, S, T, P, Q
(R: 0.2 nM, S: 2 nM, T: 5 nM, P: 70 nM, Q: 1480 nM)

P = CO[C@H]1COCC[C@H]1NC1CCN(C(=O)c2nc(C3CC3)nc(Nc3ccc(Cl)c(Cl)c3)c2C)CC1 [Example 33p]
Q = Cc1c(Nc2cc3ccccc3c(C)n2)ncnc1C(=O)N1CCC(N2CCC(N(C)S(C)(=O)=O)CC2)CC1
R = COc1cc(Nc2ncnc(C(=O)N3CCC(N[C@@H]4CCOC[C@@H]4OC)CC3)c2C)cc2ccccc12
S = CO[C@H]1COCC[C@H]1NC1CCN(C(=O)c2ncnc(Nc3ccc(Cl)c(Cl)c3)c2C)CC1 [Example 17b]
Rank items: key Ki, increasing. Give your ranking as a list of the labels in the requested order.
P, S, R, Q

a = COC1COCCC1NC1CCN(C(=O)c2ncnc(Nc3cc(C(F)(F)F)cc(C(F)(F)F)c3)c2C)CC1 (stereo not drawn)
b = COc1c(Nc2cccc(C(F)(F)F)c2)ncnc1C(=O)N1CCC(N[C@@H]2CCOC[C@@H]2OC)CC1
Consider a and b . Which of these has its Ki at a higher number? Please reply using the label of the selected record.
a
(a: 121 nM, b: 49 nM)

* * *

target: CCR2 (Homo sapiens); construct: Membranes were prepared from THP-1 cells; endogenous in cells; assay: Receptor membrane binding assay: [125I]MCP-1 binding to CCR2 on THP-1 cell membranes (SPA beads); details: THP-1 membranes, [125I]MCP-1, bound radioactivity after 8 h; read-out: hKi
attributeMeasured: Ki (nM)

Completed entries (count: 3):
{"columns": ["compound", "observed"],
 "data": [
  ["COc1nc(Nc2cccc(C(F)(F)F)c2)c(C)c(C(=O)N2CCC(NC3CCOCC3F)CC2)n1 (stereo not shown) [Example 33k]", 5],
  ["COc1nc(Nc2cccc(C(F)(F)F)c2)c(C)c(C(=O)N2CCC(N[C@H]3CCOC[C@H]3OC)CC2)n1 [Example 33j]", 1],
  ["CO[C@@H]1COCC[C@@H]1NC1CCN(C(=O)c2nc(C3CC3)nc(Nc3cccc(C(F)(F)F)c3)c2C)CC1 [Example 33t]", 0.3]
]}

A = COc1c(Nc2cccc(C(F)(F)F)c2)ncnc1C(=O)N1CCC(N[C@H]2CCOC[C@H]2OC)CC1
B = COc1nc(Nc2cccc(C(F)(F)F)c2)c(C)c(C(=O)N2CCC(NC3CCOCC3)CC2)n1 [Example 33w]
I'm curious whether A or B has the smaller Ki number. Which is it? State the label of the item chosen.
B

a = Cc1c(Nc2ccc(Cl)c(Cl)c2)nc(C(F)(F)F)nc1C(=O)N1CCC(NC2CCOCC2)CC1 [Example 33n]
b = COC1COCCC1NC1CCN(C(=O)c2ncnc(Nc3cccc(Cl)c3C)c2C)CC1 (stereo not shown)
# return whichever of a and b has the smaller Ki Write the label of whichever entry you select.
a

* * *

Target: CCR2 (Homo sapiens)
Construct: Membranes were prepared from THP-1 cells; endogenous in cells
Assay: Receptor membrane binding assay: [125I]MCP-1 binding to CCR2 on THP-1 cell membranes (SPA beads)
Details: THP-1 membranes, [125I]MCP-1, bound radioactivity after 8 h; read-out: hKi
Description: The above exemplary substances have been tested for binding to CCR2 using a binding assay as outlined herein below: THP-1 cells (human acute monocytic leukaemia cells) were cultured under standardized conditions at 37° C. and 5% CO2 in a humidified incubator. […] Perkin Elmer NEX 332 Jod 125 MCP-1, Stock: 2200 Ci/mmol solved in 2000 μl assay buffer, stored at −20° C. […] Bound radioactivity was determined by scintillation counter after 8 h. […]
attributeMeasured: Ki (nM)

a = CO[C@H]1COCC[C@H]1NC1CCN(C(=O)c2nc(C(F)(F)F)nc(Nc3ccc(Cl)c(Cl)c3)c2C)CC1 [Example 33d]
b = CO[C@@H]1COCC[C@@H]1NC1CCN(C(=O)c2ncnc(Nc3ccc4cc(Br)ccc4c3)c2C)CC1
c = COC1COCCC1NC1CCN(C(=O)c2ncnc(Nc3ccc(Br)cc3)c2C)CC1 (centres unmarked)
d = Cc1c(Nc2ccc(Cl)c(Cl)c2)ncnc1C(=O)N1CCC(NC2CCOCC2)CC1 [Example 33l]
e = COc1nc(Nc2ccc(Cl)c(Cl)c2)c(C)c(C(=O)N2CCC(N[C@@H]3CCOC[C@@H]3OC)CC2)n1 [Example 33b]
Kindly order the items shown according to Ki, from the highest value down. In plain terms: list the labels in the order you were asked to.
c, b, d, e, a
(c: 30 nM, b: 17 nM, d: 6 nM, e: 0.7 nM, a: 0.3 nM)
